Consider the following pKi values measured on VMAT2 (human platelet homogenate) (Homo sapiens (Human)).
Sequence (Q05940 whole entry): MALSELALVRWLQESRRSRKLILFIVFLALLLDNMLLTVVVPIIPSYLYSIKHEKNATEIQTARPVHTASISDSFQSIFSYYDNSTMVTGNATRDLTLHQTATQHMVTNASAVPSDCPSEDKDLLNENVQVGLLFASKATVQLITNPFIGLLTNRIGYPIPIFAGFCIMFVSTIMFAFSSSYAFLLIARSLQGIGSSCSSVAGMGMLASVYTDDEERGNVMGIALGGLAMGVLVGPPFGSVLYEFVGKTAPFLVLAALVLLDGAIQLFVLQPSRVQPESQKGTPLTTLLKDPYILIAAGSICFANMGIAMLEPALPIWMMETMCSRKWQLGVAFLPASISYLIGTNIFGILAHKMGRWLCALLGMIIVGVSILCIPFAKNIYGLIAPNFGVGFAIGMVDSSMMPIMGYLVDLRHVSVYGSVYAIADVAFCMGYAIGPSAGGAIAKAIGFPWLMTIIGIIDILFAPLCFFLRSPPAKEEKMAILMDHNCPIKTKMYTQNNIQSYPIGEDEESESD
pKi: −log10 of the molar value.

compound	targetOrSystem	pKi
COc1cc2c(cc1OC)[C@H]1C[C@@H](COC(=O)CCN3CCN(C)CC3)[C@H](CC(C)C)CN1CC2 [Compound 2-15]	VMAT2 (human platelet homogenate) (Homo sapiens (Human))	> 8.00
COc1cc2c(cc1OC)[C@H]1C[C@@H](COC(=O)C3CCCCC3C(=O)O)[C@H](CC(C)C)CN1CC2 (stereo partly shown) [Compound 3-5]	VMAT2 (human platelet homogenate) (Homo sapiens (Human))	6.30 to 8.00
COc1cc2c(cc1OC)[C@H]1C[C@@H](COC(=O)N3CCN(C)C[C@H]3C)[C@H](CC(C)C)CN1CC2 [Compound 5-50]	VMAT2 (human platelet homogenate) (Homo sapiens (Human))	> 8.00
COc1cc2c(cc1OC)[C@H]1C[C@@H](COC(=O)N3CCNC[C@@H]3CO)[C@H](CC(C)C)CN1CC2 [Compound 6-7]	VMAT2 (human platelet homogenate) (Homo sapiens (Human))	> 8.00
